tested on: Plasmodium berghei; assay: Screen against P. berghei liver stage (PbLuc), transformed with Luciferase, at 2uM; type: functional, HepG2; conditions: tested at 2 uM
Hit rate of the full screen: of about 68,000 compounds, about 2,700 (4%) showed an effect of 50% or more. The sample holds strong results, similar compounds and a random draw of the others, so the mix is not that of the screen.
Metric: INHIBITION (%)

                                    compound      metric  result_value
 0  CC(NCC1CCN(CCO)CC1)c1ccc(F)c(Cl)c1 (stereo unspecified)  INHIBITION       -111.19
 1  O=C(N[C@@H]1CCC[C@@H](N2CCOCC2)[C@@H]1O)c1cc2ccccc2[nH]1  INHIBITION          8.26
 2  O=C(N[C@@H]1CCC[C@@H](N2CCCC2)[C@@H]1O)c1cc2ccccc2[nH]1  INHIBITION         14.49
 3   O=C(NCc1cccnc1)Nc1cc(C(F)(F)F)c[nH]c1=O  INHIBITION        -13.92
 4  CC(NC(=O)Nc1ccc(F)c(F)c1)c1nc[nH]n1 (stereo unspecified)  INHIBITION         -5.51
 5  CCN1CC(C(=O)NCc2ccccc2-n2cccn2)CC1=O (stereo unspecified)  INHIBITION         24.91
 6  CC(=O)NCCc1ccc(S(=O)(=O)N(C)C(C)C(C)(C)C)s1 (stereo unspecified)  INHIBITION          32.1
 7  CC(NCC1CCN(CCO)CC1)c1ccc(OC(F)(F)F)cc1 (stereo unspecified)  INHIBITION         47.68
 8    Cc1ncc(CN2CCC(c3nc4cc(Cl)ccc4o3)CC2)s1  INHIBITION         56.38
 9  CN(C)C(=O)[C@H]1CCS(=O)(=O)[C@@H]2CN(c3ncc(F)cn3)C[C@H]12  INHIBITION         32.26
10  O=C(N1CCCC1)N1CCOCC2(CCN(Cc3cccs3)C2)C1 (stereo unspecified)  INHIBITION         25.31

Where do the numbers come from? From ChEMBL document CHEMBL4513216.
